- Measured on: MERTK (UniProt Q12866)
- Sequence (Q12866 whole entry, looked up): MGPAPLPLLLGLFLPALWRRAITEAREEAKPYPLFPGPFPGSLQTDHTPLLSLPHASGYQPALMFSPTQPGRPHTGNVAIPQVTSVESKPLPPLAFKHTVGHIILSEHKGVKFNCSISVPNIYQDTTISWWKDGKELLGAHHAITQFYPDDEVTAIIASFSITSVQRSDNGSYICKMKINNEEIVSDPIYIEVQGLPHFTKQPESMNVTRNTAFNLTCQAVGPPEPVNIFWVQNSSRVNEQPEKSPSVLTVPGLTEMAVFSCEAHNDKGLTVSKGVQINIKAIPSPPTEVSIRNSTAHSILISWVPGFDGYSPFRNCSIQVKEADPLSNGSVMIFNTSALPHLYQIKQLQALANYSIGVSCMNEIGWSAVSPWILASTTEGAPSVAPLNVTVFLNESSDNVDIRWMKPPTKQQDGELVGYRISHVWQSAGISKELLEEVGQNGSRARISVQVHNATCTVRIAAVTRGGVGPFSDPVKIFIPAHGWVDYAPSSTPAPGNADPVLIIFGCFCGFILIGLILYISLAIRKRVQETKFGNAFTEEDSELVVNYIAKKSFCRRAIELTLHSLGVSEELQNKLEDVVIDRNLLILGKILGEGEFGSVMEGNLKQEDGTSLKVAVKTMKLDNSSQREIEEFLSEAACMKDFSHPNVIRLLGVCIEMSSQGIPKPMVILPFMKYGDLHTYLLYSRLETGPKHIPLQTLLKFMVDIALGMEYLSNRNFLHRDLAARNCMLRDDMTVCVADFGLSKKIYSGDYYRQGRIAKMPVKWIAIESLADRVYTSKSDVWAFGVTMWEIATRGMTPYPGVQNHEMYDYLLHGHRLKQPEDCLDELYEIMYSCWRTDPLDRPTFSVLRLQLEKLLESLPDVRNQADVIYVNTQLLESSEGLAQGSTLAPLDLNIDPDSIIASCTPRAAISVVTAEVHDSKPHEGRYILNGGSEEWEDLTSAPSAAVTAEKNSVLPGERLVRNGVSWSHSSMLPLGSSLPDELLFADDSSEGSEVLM
- Protocol summary: phosphorylation enrichment, bacterial display (enrichment ratio); higher = better substrate or ligand; peptides without Tyr show the background;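 note: 11-residue human phosphosite peptides and single-mutation variants displayed on the E. coli surface, counted by deep sequencing, each peptide's frequency after selection divided by its frequency in the unselected input library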;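 note: frequency after pTyr selection over input frequency; kinase dosed for 20-30% of maximal phosphorylation in three min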
Property name: phosphorylation enrichment

Please report the recorded phosphorylation enrichment for TVLEPYADPYY [ZC3H18_Y367] .
0.712

Please report the recorded phosphorylation enrichment for FFRNVYHLASV [RBL1_Y796_K794N_YF] .
0.404

Please report the recorded phosphorylation enrichment for DRLASYLDKVP [KRT14_Y129_R134P] .
0.495

Please report the recorded phosphorylation enrichment for KRLFAYKMLMA [TMC2_Y209_Q205R_YF] .
0.375

Please report the recorded phosphorylation enrichment for WRVIGYHVVVW [ATP13A2_Y50] .
0.417

Please report the recorded phosphorylation enrichment for GKSDPYHATTG [GJA1_Y247_S251T] .
0.319

Please report the recorded phosphorylation enrichment for VIKDKYPQARF [APTX_Y209_K211Q_YF] .
0.406

----------
- Measured on: EPHB2 (UniProt P29323)
- Sequence (P29323 whole entry, looked up): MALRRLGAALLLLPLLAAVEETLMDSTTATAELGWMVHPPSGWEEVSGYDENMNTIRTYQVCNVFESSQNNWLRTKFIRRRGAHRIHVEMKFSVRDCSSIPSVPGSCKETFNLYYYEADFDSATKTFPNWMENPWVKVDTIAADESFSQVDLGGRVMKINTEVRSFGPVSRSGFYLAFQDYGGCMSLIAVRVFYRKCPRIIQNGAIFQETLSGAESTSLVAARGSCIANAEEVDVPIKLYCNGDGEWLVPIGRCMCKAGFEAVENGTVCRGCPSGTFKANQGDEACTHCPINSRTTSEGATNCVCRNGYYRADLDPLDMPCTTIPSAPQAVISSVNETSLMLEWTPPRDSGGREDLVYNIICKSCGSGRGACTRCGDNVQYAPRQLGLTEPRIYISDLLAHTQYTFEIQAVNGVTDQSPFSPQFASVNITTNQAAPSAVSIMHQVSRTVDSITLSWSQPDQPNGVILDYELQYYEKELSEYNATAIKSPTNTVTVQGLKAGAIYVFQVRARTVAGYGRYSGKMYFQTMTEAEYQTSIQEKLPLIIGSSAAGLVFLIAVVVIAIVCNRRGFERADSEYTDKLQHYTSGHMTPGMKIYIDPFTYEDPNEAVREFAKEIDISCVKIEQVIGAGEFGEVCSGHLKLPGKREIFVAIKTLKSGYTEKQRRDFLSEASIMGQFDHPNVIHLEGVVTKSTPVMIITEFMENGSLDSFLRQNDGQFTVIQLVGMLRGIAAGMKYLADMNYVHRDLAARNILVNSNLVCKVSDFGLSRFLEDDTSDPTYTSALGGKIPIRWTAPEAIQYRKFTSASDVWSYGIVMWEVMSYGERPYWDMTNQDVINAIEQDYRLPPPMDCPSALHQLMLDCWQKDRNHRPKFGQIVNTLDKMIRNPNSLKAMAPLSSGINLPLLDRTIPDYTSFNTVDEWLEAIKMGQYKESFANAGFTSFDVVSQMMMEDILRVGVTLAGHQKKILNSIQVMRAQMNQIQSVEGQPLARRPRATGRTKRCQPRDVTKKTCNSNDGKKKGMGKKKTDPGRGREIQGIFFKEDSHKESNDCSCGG
- Protocol summary: phosphorylation enrichment, bacterial display (enrichment ratio); higher = better substrate or ligand; peptides without Tyr show the background
Short version: phosphorylation enrichment at least 0.6 is True, less is False.

Textbook exercise: given the entry NACGLYYKLHN [GATA2_Y376] , state whether its phosphorylation enrichment is greater than or equal to 0.6.
True

Textbook exercise: given the entry GVIRHYVVCST [BTK_Y334] , state whether its phosphorylation enrichment is greater than or equal to 0.6.
True

Textbook exercise: given the entry KPNMNYDKLSQ [FLI1_Y332_R337Q] , state whether its phosphorylation enrichment is greater than or equal to 0.6.
False

Textbook exercise: given the entry FSGDFYRIQGR [DDR2_Y741_YF] , state whether its phosphorylation enrichment is greater than or equal to 0.6.
False

Textbook exercise: given the entry TGTQLYGRFGS [ITGA2B_Y384] , state whether its phosphorylation enrichment is greater than or equal to 0.6.
False

Textbook exercise: given the entry SLNAVYPKAGS [OAS3_Y376_R378K] , state whether its phosphorylation enrichment is greater than or equal to 0.6.
False

----------
# Lookup of reported phosphorylation enrichment keyed by entry
- Measured on: MERTK (UniProt Q12866)
- Protocol summary: phosphorylation enrichment, bacterial display (enrichment ratio); higher = better substrate or ligand; peptides without Tyr show the background
# output: bare number, no unit

RLLRGYDQSAY [HLA-C_Y137]: 0.36
FAKTQYPDVFA [CRX_Y63_YF]: 0.38
KTSGNYLPVTG [WDR19_Y28_A30P]: 0.598
RKIMGYSIRTI [IDS_Y490_I485R]: 0.535

Short answer please: phosphorylation enrichment, MERTK (UniProt Q12866), entry SAEEDYMADAK [KCNT1_Y876]
0.486

Short answer please: phosphorylation enrichment, MERTK (UniProt Q12866), entry IENPQYFSDAC [NTRK1_Y496]
0.546

Short answer please: phosphorylation enrichment, MERTK (UniProt Q12866), entry SLNAVYPRAGR [OAS3_Y376_S381R]
0.409

Short answer please: phosphorylation enrichment, MERTK (UniProt Q12866), entry TNFCLYLRSLE [MTM1_Y71_R69C_YF]
0.492

Short answer please: phosphorylation enrichment, MERTK (UniProt Q12866), entry TCRPPYYHRNC [HGD_Y333_F329C]
0.235

Short answer please: phosphorylation enrichment, MERTK (UniProt Q12866), entry SQSAKYDMAED [TTC21B_Y1213_I1208S]
0.441

Reference source: the supplement of paper PMC10065799
